Tested on: greenfoxtail (Setaria viridis L.)
Assay Overview: Test Example 1: foliar treatment, growth inhibition rate, greenfoxtail
Assay type: in vivo
Cond: 63 g/ha active ingredient, visually observed 17th to 23rd day after application
Could you please report measured Growth inhibition rate (%) Greenfoxtail for the items listed next?
Use % as the unit, but write only the number.

Asked: For CCC(C)SC(=O)Oc1c(C(=O)c2ccc(S(C)(=O)=O)c(C(=O)OC)c2Cl)cnn1CC (centres unmarked) [compound 220] , what is its reported Growth inhibition rate (%) Greenfoxtail?
Given back: 70

Asked: Return reported Growth inhibition rate (%) Greenfoxtail; argument: CCSC(=O)Oc1c(C(=O)c2ccc(S(C)(=O)=O)c(S(C)(=O)=O)c2Cl)cnn1C [compound 224]
Given back: 70

Asked: Which Growth inhibition rate (%) Greenfoxtail is listed for CCSC(=O)Oc1c(C(=O)c2ccc(S(C)(=O)=O)c(CSC#N)c2C)cnn1C [compound 231] ?
Given back: 40

Asked: # query: Growth inhibition rate (%) Greenfoxtail of entry CCSC(=O)Oc1c(C(=O)c2ccc(S(C)(=O)=O)c(OC)c2Cl)cnn1C [compound 214]
Given back: 90

Asked: I have this compound here, CCSC(=O)Oc1c(C(=O)c2ccc(S(C)(=O)=O)c(SC)c2Cl)cnn1C [compound 212] , and I need its recorded Growth inhibition rate (%) Greenfoxtail.
Given back: 60

Asked: May I ask what Growth inhibition rate (%) Greenfoxtail has been recorded for CCSC(=O)Oc1c(C(=O)c2ccc(S(C)(=O)=O)c(CN(CC#N)C(=O)SCC)c2C)cnn1C [compound 228] ?
Given back: 40

Asked: Would you mind telling me what Growth inhibition rate (%) Greenfoxtail value was observed for CCSC(=O)Oc1c(C(=O)c2ccc(S(C)(=O)=O)c(OCCC3OCCO3)c2Cl)cnn1CC [compound 221] ?
Given back: 50

Asked: So what's the measured Growth inhibition rate (%) Greenfoxtail for this one? CCSC(=O)Oc1c(C(=O)c2ccc(S(C)(=O)=O)c(CC3OCCO3)c2C)cnn1C [compound 238]
Given back: 98

* * *

Assign Growth inhibition rate (%) redroot pigweed to each entry below.
Test system: redroot pigweed
Assay Overview: Test Example 2: soil application on the day after sowing, growth inhibition rate, redroot pigweed
Assay type: in vivo, Amaranthus retroflexus L.
Cond: 250 g/ha active ingredient, observed on 19th to 24th day
Respond numerically; units are % and should not be typed.

Asked: Form field: reported Growth inhibition rate (%) redroot pigweed of CCSC(=O)Oc1c(C(=O)c2ccc(S(C)(=O)=O)c(OCCCl)c2C)cnn1C
Given back: 80

Asked: I am curious: what Growth inhibition rate (%) redroot pigweed value has been reported for CCCSC(=O)Oc1c(C(=O)c2ccc(S(C)(=O)=O)c(C(=O)OC)c2C)cnn1C ?
Given back: 100

Asked: Requested read-out: Growth inhibition rate (%) redroot pigweed. Entry: CCSC(=O)Oc1c(C(=O)c2ccc(S(C)(=O)=O)c(COCC(F)(F)F)c2C)cnn1C
Given back: 100

Asked: Name the recorded Growth inhibition rate (%) redroot pigweed for CCn1ncc(C(=O)c2ccc(S(C)(=O)=O)c(C(=O)OC)c2C)c1OC(=O)SCc1ccccc1 .
Given back: 100

* * *

System: redroot pigweed (Amaranthus retroflexus L.)
Assay Overview: Test Example 1: foliar treatment, growth inhibition rate, redroot pigweed
Format: in vivo
Cond: 31 g/ha active ingredient, visually observed 17th to 23rd day after application
Could you please report measured Growth inhibition rate (%) redroot pigweed for the items listed next?
Numeric answer only, unit % assumed.

Asked: I would be grateful if you could share the reported Growth inhibition rate (%) redroot pigweed for C=C(C)CSC(=O)Oc1c(C(=O)c2ccc(S(C)(=O)=O)c(C(=O)OC)c2C)cnn1CC .
Given back: 100

Asked: Returns the measured Growth inhibition rate (%) redroot pigweed for the input compound. Input: COC(=O)c1c(S(C)(=O)=O)ccc(C(=O)c2cnn(C)c2OC(=O)SC(C)C)c1C
Given back: 95

Asked: Requested read-out: Growth inhibition rate (%) redroot pigweed. Entry: COC(=O)c1c(S(C)(=O)=O)ccc(C(=O)c2cnn(C)c2OC(=O)SC)c1C
Given back: 90

Asked: Need Growth inhibition rate (%) redroot pigweed, item CCn1ncc(C(=O)c2ccc(S(C)(=O)=O)c(OCCOC)c2C)c1OC(=O)SC(C)C
Given back: 100

Asked: // returns reported Growth inhibition rate (%) redroot pigweed for input CCCSC(=O)Oc1c(C(=O)c2ccc(S(C)(=O)=O)c(C(=O)OC)c2C)cnn1C
Given back: 100

Asked: Which Growth inhibition rate (%) redroot pigweed reading was recorded for the compound CCSC(=O)Oc1c(C(=O)c2ccc(S(C)(=O)=O)c(CS(C)(=O)=O)c2C)cnn1C ?
Given back: 60

Asked: Which Growth inhibition rate (%) redroot pigweed value belongs to CCSC(=O)Oc1c(C(=O)c2ccc(S(C)(=O)=O)c(CN(C)CC#N)c2C)cnn1C ?
Given back: 10

Asked: Any idea what its Growth inhibition rate (%) redroot pigweed is? The compound is C=CCSC(=O)Oc1c(C(=O)c2ccc(S(C)(=O)=O)c(C(=O)OC)c2C)cnn1CC
Given back: 98

* * *

For each record, write down the corresponding Growth inhibition rate (%) redroot pigweed.
System: redroot pigweed
Assay Overview: Test Example 2: soil application on the day after sowing, growth inhibition rate, redroot pigweed
Assay type: in vivo, Amaranthus retroflexus L.
Cond: 250 g/ha active ingredient, observed on 19th to 24th day
Give a bare numeral; the unit % is implied.

Asked: // Growth inhibition rate (%) redroot pigweed lookup, key: C#CCOc1c(S(C)(=O)=O)ccc(C(=O)c2cnn(C)c2OC(=O)SCC)c1C
Given back: 100

Asked: What does the data say about its Growth inhibition rate (%) redroot pigweed? Entry: COC(=O)c1c(S(C)(=O)=O)ccc(C(=O)c2cnn(C)c2OC(=O)SC(C)C)c1C
Given back: 100

Asked: Any idea what Growth inhibition rate (%) redroot pigweed was measured for CCCSC(=O)Oc1c(C(=O)c2ccc(S(C)(=O)=O)c(OCCOC)c2C)cnn1CC ?
Given back: 100

Asked: Name the reported Growth inhibition rate (%) redroot pigweed value associated with the compound CCSC(=O)Oc1c(C(=O)c2ccc(S(C)(=O)=O)c(OCCSC)c2C)cnn1C
Given back: 0

Asked: Sample CCSC(=O)Oc1c(C(=O)c2ccc(C(F)(F)F)cc2S(C)(=O)=O)cnn1CC — what was its Growth inhibition rate (%) redroot pigweed?
Given back: 98

Asked: Find the recorded Growth inhibition rate (%) redroot pigweed belonging to CCOC(=O)c1c(S(C)(=O)=O)ccc(C(=O)c2cnn(CC)c2OC(=O)SCC)c1Cl and report it.
Given back: 100

Asked: Entry under review: CCSC(=O)Oc1c(C(=O)c2ccc(S(C)(=O)=O)c(COC)c2Cl)cnn1C . Reported Growth inhibition rate (%) redroot pigweed?
Given back: 100

Asked: Which Growth inhibition rate (%) redroot pigweed value is on record for CCSC(=O)Oc1c(C(=O)c2ccc(S(C)(=O)=O)c(OCCC3OCCO3)c2Cl)cnn1CC ?
Given back: 100

Asked: Name the reported Growth inhibition rate (%) redroot pigweed value associated with the compound CCSC(=O)Oc1c(C(=O)c2ccc(S(C)(=O)=O)c(CC#N)c2C)cnn1C
Given back: 90

Asked: I am curious: what Growth inhibition rate (%) redroot pigweed value has been reported for CCSC(=O)Oc1c(C(=O)c2ccc(S(C)(=O)=O)c(COC)c2C)cnn1C ?
Given back: 90

Asked: Which value of Growth inhibition rate (%) redroot pigweed has been reported for CCSC(=O)Oc1c(C(=O)c2ccc(S(C)(=O)=O)c(COCCOC)c2C)cnn1C in the records?
Given back: 90

Asked: Query: Growth inhibition rate (%) redroot pigweed; subject: CCSC(=O)Oc1c(C(=O)c2ccc(S(C)(=O)=O)c(CSC#N)c2C)cnn1C
Given back: 50

Asked: Which Growth inhibition rate (%) redroot pigweed value is on record for CCCOc1c(S(C)(=O)=O)ccc(C(=O)c2cnn(CC)c2OC(=O)SCC)c1C ?
Given back: 50

Asked: For the compound shown here, CCCSC(=O)Oc1c(C(=O)c2ccc(S(C)(=O)=O)c(C(=O)OC)c2C)cnn1CC , give the reported Growth inhibition rate (%) redroot pigweed.
Given back: 98

Asked: Bench note: what Growth inhibition rate (%) redroot pigweed did CCSC(=O)Oc1c(C(=O)c2ccc(S(C)(=O)=O)c(OC(C)COC)c2C)cnn1C (centres unmarked) show?
Given back: 100

Asked: Bench note: what Growth inhibition rate (%) redroot pigweed did CCn1ncc(C(=O)c2ccc(S(C)(=O)=O)c(C(=O)OC)c2C)c1OC(=O)SC show?
Given back: 100

Asked: Requested read-out: Growth inhibition rate (%) redroot pigweed. Entry: CCSC(=O)Oc1c(C(=O)c2ccc(S(C)(=O)=O)c(C(=O)OC)c2Cl)cnn1CC
Given back: 100

* * *

Test system: wheat
Assay Overview: Test Example 2: soil application on the day after sowing, growth inhibition rate, wheat
Assay type: in vivo, Triticum spp.
Cond: 250 g/ha active ingredient, observed on 19th to 24th day
From the text: Upland field soil was put into a 1/170,000 hectare pot, and seeds of various plants (barnyardgrass, crabgrass, greenfoxtail, redroot pigweed, prickly sida, velvetleaf, rice, wheat, corn and soybean) were sown. […]
Reported Endpoint: Growth inhibition rate (%) Wheat
Give the value, in units of %, as a plain number.

Asked: Which value of Growth inhibition rate (%) Wheat has been reported for COCCOc1c(S(C)(=O)=O)ccc(C(=O)c2cnn(C)c2OC(=O)SC(C)C)c1C in the records?
Given back: 0

Asked: Which Growth inhibition rate (%) Wheat reading was recorded for the molecule COC(=O)c1c(S(C)(=O)=O)ccc(C(=O)c2cnn(C)c2OC(=O)SC(C)(C)C)c1C ?
Given back: 0

Asked: I am curious: what Growth inhibition rate (%) Wheat value has been reported for CCSC(=O)Oc1c(C(=O)c2ccc(S(C)(=O)=O)c(C(=O)OC)c2Cl)cnn1CC ?
Given back: 0

Asked: Fill in: Growth inhibition rate (%) Wheat of CCSC(=O)Oc1c(C(=O)c2ccc(S(C)(=O)=O)c(OC(C)C)c2C)cnn1C is ___
Given back: 0

Asked: Entry CCSC(=O)Oc1c(C(=O)c2ccc(S(C)(=O)=O)c(C#N)c2C)cnn1C : reported Growth inhibition rate (%) Wheat = ?
Given back: 0

Asked: Which value of Growth inhibition rate (%) Wheat has been reported for CCC(C)SC(=O)Oc1c(C(=O)c2ccc(S(C)(=O)=O)c(C(=O)OC)c2C)cnn1CC (centres unmarked) in the records?
Given back: 0

Asked: Please look up its Growth inhibition rate (%) Wheat: COC(=O)c1c(S(C)(=O)=O)ccc(C(=O)c2cnn(C)c2OC(=O)SC)c1C
Given back: 0

Asked: Query (molecule): CCn1ncc(C(=O)c2ccc(S(C)(=O)=O)c(C(=O)OC)c2C)c1OC(=O)SCc1ccccc1 ; field requested: Growth inhibition rate (%) Wheat
Given back: 0

Each recorded value in this set is attributed to patent US8030498B2.
